tested on: Escherichia coli; assay: Antimicrobial activity against Escherichia coli Irk1224 harboring beta-lactamase CTX-M-3 by agar dilution method; assay type: functional
Give measured MIC for each item. Keep answers brief.
Quick note: give the figure in µg/mL, leave out the unit.

Escherichia coli MIC of `CC1(C)S[C@@H]2[C@H](NC(=O)[C@H](N)c3ccc(O)cc3)C(=O)N2[C@H]1C(=O)O` is 32

Escherichia coli MIC of `CO/N=C(\C(=O)N[C@@H]1C(=O)N2C(C(=O)[O-])=C(C[N+]3(C)CCCC3)CS[C@H]12)c1csc(N)n1` is 32

---

tested on: Escherichia coli; assay: Antimicrobial activity against ceftazidime-resistant Escherichia coli Irk2322 harboring beta-lactamase CTX-M-42 Pro167Thr mutant gene by agar dilution method; type: functional
readout_type: MIC (µg/mL)
Quick note: give the figure in µg/mL, leave out the unit.

Record `CO/N=C(\C(=O)N[C@@H]1C(=O)N2C(C(=O)[O-])=C(C[N+]3(C)CCCC3)CS[C@H]12)c1csc(N)n1` , field MIC: 1

Record `CO/N=C(\C(=O)N[C@@H]1C(=O)N2C(C(=O)O)=C(CSc3nc(=O)c(O)nn3C)CS[C@H]12)c1csc(N)n1` , field MIC: 8

Record `CC1(C)S[C@@H]2[C@H](NC(=O)[C@H](N)c3ccc(O)cc3)C(=O)N2[C@H]1C(=O)O` , field MIC: 16
